Test system: RERF-GC-1B (Gastric Carcinoma)
test-method-notes: combination Emax (second highest fraction inhibited in the dose matrix, 72 h); higher = more inhibition; extreme values may be limits of the assay
assay-readout: combination Emax
Lab note: record just the number, no unit beside it.

Worked cases, combination Emax given:
1) CN(C)CCCOc1ccc(-c2ccc3ncc4c(c3c2)n(C2CCOCC2)c(=O)n4C)cn1 [AZD0156] + C=CCn1c(=O)c2cnc(Nc3ccc(N4CCN(C)CC4)cc3)nc2n1-c1cccc(C(C)(C)O)n1 [AZD1775] (first compound max 1 µM, partner max 1 µM)    0.772
2) COc1cccc(OCCCN)c1-c1cc(Nc2cnc(C#N)cn2)n[nH]1 [Prexasertib] + O=C(c1cc(Cc2n[nH]c(=O)c3ccccc23)ccc1F)N1CCN(C(=O)C2CC2)CC1 [Olaparib] (first compound max 1 µM, 7x7, partner max 10 µM)    0.552
3) Cc1cc2ncnn2cc1Nc1ncc2c(n1)n(C1CCOCC1)c(=O)n2C [AZD7648] + CCN(CCO)CCCOc1ccc2c(Nc3cc(CC(=O)Nc4cccc(F)c4)[nH]n3)ncnc2c1 [AZD2811] (first compound max 10 µM, 7x7, partner max 1 µM)    0.281

// query combination Emax value for entry CN(C)CCCOc1ccc(-c2ccc3ncc4c(c3c2)n(C2CCOCC2)c(=O)n4C)cn1 [AZD0156] + CCN(CCO)CCCOc1ccc2c(Nc3cc(CC(=O)Nc4cccc(F)c4)[nH]n3)ncnc2c1 [AZD2811] (first compound max 1 µM, 7x7, partner max 1 µM)
0.423

// query combination Emax value for entry Cc1c2c(nn1C)CSCc1cc(n(C)n1)CSc1cc(c3ccccc3c1)OCCCc1c(C(=O)O)n(C)c3c-2c(Cl)ccc13 [AZD5991] + C=CCn1c(=O)c2cnc(Nc3ccc(N4CCN(C)CC4)cc3)nc2n1-c1cccc(C(C)(C)O)n1 [AZD1775] (first compound max 1 µM, partner max 1 µM)
1

// query combination Emax value for entry CC1(C)CCC(CN2CCN(c3ccc(C(=O)NS(=O)(=O)c4ccc(NCC5CCOCC5)c([N+](=O)[O-])c4)c(Oc4cnc5[nH]ccc5c4)c3)CC2)=C(c2ccc(Cl)cc2)C1 [Venetoclax] + C[C@@H](Nc1cc(F)cc(F)c1)c1cc(C(=O)N(C)C)cc2c(=O)cc(N3CCOCC3)oc12 [AZD8186] (first compound max 1 µM, 7x7, partner max 3 µM)
0.103

// query combination Emax value for entry CN(CCO)CC[C@H](CSc1ccccc1)Nc1ccc(S(=O)(=O)NC(=O)c2ccc(N3CCC([C@@H](O)c4ccccc4-c4ccc(Cl)cc4)CC3)cc2)cc1S(=O)(=O)C(F)(F)F [AZD4320] + Cc1cc2ncnn2cc1Nc1ncc2c(n1)n(C1CCOCC1)c(=O)n2C [AZD7648] (first compound max 1 µM, 7x7, partner max 10 µM)
0.344

----------
Measured combination Emax accompanies every entry in the list below.
Tested on: COLO-680N (Esophageal Squamous Cell Carcinoma)
test-method-notes: combination Emax (second highest fraction inhibited in the dose matrix, 72 h); higher = more inhibition; extreme values may be limits of the assay

Worked cases, combination Emax given:
1. C=CCn1c(=O)c2cnc(Nc3ccc(N4CCN(C)CC4)cc3)nc2n1-c1cccc(C(C)(C)O)n1 [AZD1775] + C[C@@H]1COCCN1C2=NC(=NC(=C2)C3(CC3)[S@](=N)(=O)C)C4=C5C=CNC5=NC=C4 [AZD6738] (first compound max 1 µM, partner max 10 µM)    0.529
2. CN(CCO)CC[C@H](CSc1ccccc1)Nc1ccc(S(=O)(=O)NC(=O)c2ccc(N3CCC([C@@H](O)c4ccccc4-c4ccc(Cl)cc4)CC3)cc2)cc1S(=O)(=O)C(F)(F)F [AZD4320] + C=CCn1c(=O)c2cnc(Nc3ccc(N4CCN(C)CC4)cc3)nc2n1-c1cccc(C(C)(C)O)n1 [AZD1775] (first compound max 1 µM, partner max 1 µM)    0.223

From here, focus on the item given below.
// query combination Emax value for entry C[C@@H](Nc1cc(F)cc(F)c1)c1cc(C(=O)N(C)C)cc2c(=O)cc(N3CCOCC3)oc12 [AZD8186] + C1CN(CCC1(C(=O)N[C@@H](CCO)C2=CC=C(C=C2)Cl)N)C3=NC=NC4=C3C=CN4 [AZD5363] (first compound max 10 µM, 7x7, partner max 10 µM)
0.245

----------
Test system: L-1236 (Hodgkin's Lymphoma)
test-method-notes: combination Emax (second highest fraction inhibited in the dose matrix, 72 h); higher = more inhibition; extreme values may be limits of the assay
Tick fulfilled if combination Emax is 0.6 or greater. Tick not fulfilled if combination Emax is less than 0.6.

Illustrative cases are given below, each with its answer.
1. CN(C)CCCOc1ccc(-c2ccc3ncc4c(c3c2)n(C2CCOCC2)c(=O)n4C)cn1 [AZD0156] + C[C@@H]1COCCN1C2=NC(=NC(=C2)C3(CC3)[S@](=N)(=O)C)C4=C5C=CNC5=NC=C4 [AZD6738] (first compound max 1 µM, 7x7, partner max 10 µM)    fulfilled
2. CN(CCO)CC[C@H](CSc1ccccc1)Nc1ccc(S(=O)(=O)NC(=O)c2ccc(N3CCC([C@@H](O)c4ccccc4-c4ccc(Cl)cc4)CC3)cc2)cc1S(=O)(=O)C(F)(F)F [AZD4320] + C1CN(CCC1(C(=O)N[C@@H](CCO)C2=CC=C(C=C2)Cl)N)C3=NC=NC4=C3C=CN4 [Capivasertib] (first compound max 1 µM, 7x7, partner max 3 µM)    fulfilled
3. N#Cc1cnc(Nc2cc(NC[C@H]3CNCCO3)c(C(F)(F)F)cn2)cn1 [SRA737] + O=c1[nH]cc(F)c(=O)[nH]1 [5-Fluorouracil] (first compound max 10 µM, 7x7, partner max 20 µM)    fulfilled

Exam item: decide whether the reported combination Emax for Cn1cnc2c(F)c(Nc3ccc(Br)cc3Cl)c(C(=O)NOCCO)cc21 [Selumetinib] + C[C@@H]1COCCN1C2=NC(=NC(=C2)C3(CC3)[S@](=N)(=O)C)C4=C5C=CNC5=NC=C4 [AZD6738] (first compound max 10 µM, 7x7, partner max 10 µM) is at least 0.6.
fulfilled

Exam item: decide whether the reported combination Emax for CN(C)CCCOc1ccc(-c2ccc3ncc4c(c3c2)n(C2CCOCC2)c(=O)n4C)cn1 [AZD0156] + C=CCn1c(=O)c2cnc(Nc3ccc(N4CCN(C)CC4)cc3)nc2n1-c1cccc(C(C)(C)O)n1 [AZD1775] (first compound max 1 µM, partner max 1 µM) is at least 0.6.
fulfilled

Exam item: decide whether the reported combination Emax for Cc1cc2ncnn2cc1Nc1ncc2c(n1)n(C1CCOCC1)c(=O)n2C [AZD7648] + CCN(CCO)CCCOc1ccc2c(Nc3cc(CC(=O)Nc4cccc(F)c4)[nH]n3)ncnc2c1 [AZD2811] (first compound max 10 µM, 7x7, partner max 1 µM) is at least 0.6.
not fulfilled

Exam item: decide whether the reported combination Emax for Cc1cc2ncnn2cc1Nc1ncc2c(n1)n(C1CCOCC1)c(=O)n2C [AZD7648] + CN(C)CCCOc1ccc(-c2ccc3ncc4c(c3c2)n(C2CCOCC2)c(=O)n4C)cn1 [AZD0156] (first compound max 10 µM, 7x7, partner max 1 µM) is at least 0.6.
not fulfilled

----------
Measured combination Emax accompanies every entry in the list below.
Tested on: LXF-289 (Lung Adenocarcinoma)
test-method-notes: combination Emax (second highest fraction inhibited in the dose matrix, 72 h); higher = more inhibition; extreme values may be limits of the assay
Lab note: record just the number, no unit beside it.

Worked cases, combination Emax given:
1) Cc1c2c(nn1C)CSCc1cc(n(C)n1)CSc1cc(c3ccccc3c1)OCCCc1c(C(=O)O)n(C)c3c-2c(Cl)ccc13 [AZD5991] + Cc1cc2ncnn2cc1Nc1ncc2c(n1)n(C1CCOCC1)c(=O)n2C [AZD7648] (first compound max 1 µM, 7x7, partner max 10 µM)    0.369
2) CN(CCO)CC[C@H](CSc1ccccc1)Nc1ccc(S(=O)(=O)NC(=O)c2ccc(N3CCC([C@@H](O)c4ccccc4-c4ccc(Cl)cc4)CC3)cc2)cc1S(=O)(=O)C(F)(F)F [AZD4320] + Cc1cc2ncnn2cc1Nc1ncc2c(n1)n(C1CCOCC1)c(=O)n2C [AZD7648] (first compound max 1 µM, 7x7, partner max 10 µM)    0.216
3) COc1nnc2ccc(N3CCC(c4ccc(OCCN5CCN(C)C(=O)[C@H]5C)cc4)CC3)nn12 [AZD5153] + CC1(C)CCC(CN2CCN(c3ccc(C(=O)NS(=O)(=O)c4ccc(NCC5CCOCC5)c([N+](=O)[O-])c4)c(Oc4cnc5[nH]ccc5c4)c3)CC2)=C(c2ccc(Cl)cc2)C1 [Venetoclax] (first compound max 1 µM, 7x7, partner max 1 µM)    0.646

// query combination Emax value for entry COc1nnc2ccc(N3CCC(c4ccc(OCCN5CCN(C)C(=O)[C@H]5C)cc4)CC3)nn12 [AZD5153] + Cn1cnc2c(F)c(Nc3ccc(Br)cc3Cl)c(C(=O)NOCCO)cc21 [Selumetinib] (first compound max 1 µM, 7x7, partner max 10 µM)
0.646

// query combination Emax value for entry Cc1c2c(nn1C)CSCc1cc(n(C)n1)CSc1cc(c3ccccc3c1)OCCCc1c(C(=O)O)n(C)c3c-2c(Cl)ccc13 [AZD5991] + C1CN(CCC1(C(=O)N[C@@H](CCO)C2=CC=C(C=C2)Cl)N)C3=NC=NC4=C3C=CN4 [Capivasertib] (first compound max 1 µM, 7x7, partner max 3 µM)
0.369

// query combination Emax value for entry Cc1c2c(nn1C)CSCc1cc(n(C)n1)CSc1cc(c3ccccc3c1)OCCCc1c(C(=O)O)n(C)c3c-2c(Cl)ccc13 [AZD5991] + C=CCn1c(=O)c2cnc(Nc3ccc(N4CCN(C)CC4)cc3)nc2n1-c1cccc(C(C)(C)O)n1 [AZD1775] (first compound max 1 µM, partner max 1 µM)
0.813

// query combination Emax value for entry CN(C)CCCOc1ccc(-c2ccc3ncc4c(c3c2)n(C2CCOCC2)c(=O)n4C)cn1 [AZD0156] + C[C@@H]1COCCN1C2=NC(=NC(=C2)C3(CC3)[S@](=N)(=O)C)C4=C5C=CNC5=NC=C4 [AZD6738] (first compound max 1 µM, 7x7, partner max 10 µM)
0.573
